Where do the numbers come from? From the kinase profiling compilation of Christmann-Franck et al. (2016).

target-desc: RPS6KA2 KD1 KD2 (human)
procedure-details: radiometric filter-binding kinase assay, Kinase HotSpot
run-parameters: compound 0.5 µM; ATP 10 µM
residual activity strictly under 90% means 1.0; at 90% or over means 0.0.

item-smiles: COc1ccc2c(c[n+](C)c3c4cc5c(cc4ccc23)OCO5)c1OC
target-desc: RPS6KA2 KD1 KD2 (human)
classification: 1.0
--
item-smiles: CCOC(=O)c1c(C)[nH]c(/C=C2\C(=O)Nc3ccccc32)c1C
target-desc: RPS6KA2 KD1 KD2 (human)
classification: 1.0
--
item-smiles: c1ccc(-c2n[nH]c3c2oc2ccccc23)cc1
target-desc: RPS6KA2 KD1 KD2 (human)
classification: 1.0
--
item-smiles: N#CC(C#N)=C(N)/C(C#N)=C/c1ccc(O)cc1
target-desc: RPS6KA2 KD1 KD2 (human)
classification: 0.0
--
item-smiles: O=c1cc(N2CCOCC2)oc2c1ccc1ccccc12
target-desc: RPS6KA2 KD1 KD2 (human)
classification: 0.0
--
item-smiles: Cc1ccc(Nc2nccc(N(C)c3ccc4c(C)n(C)nc4c3)n2)cc1S(N)(=O)=O
target-desc: RPS6KA2 KD1 KD2 (human)
classification: 0.0
--
item-smiles: CNC(=O)c1cc(Oc2ccc(NC(=O)Nc3ccc(Cl)c(C(F)(F)F)c3)cc2)ccn1
target-desc: RPS6KA2 KD1 KD2 (human)
classification: 0.0
--
item-smiles: CC[n+]1c(/C=C/N(C)c2ccccc2)n(-c2ccccc2)c2ccc(-c3nc4ccccc4s3)cc21
target-desc: RPS6KA2 KD1 KD2 (human)
classification: 0.0
--
item-smiles: Nc1ncnc2[nH]nc(Nc3ccc(F)cc3)c12
target-desc: RPS6KA2 KD1 KD2 (human)
classification: 1.0
--
item-smiles: O=C1NC(=O)C(c2cn(CCCn3ccnc3)c3ccccc23)=C1Nc1ccccc1
target-desc: RPS6KA2 KD1 KD2 (human)
classification: 1.0
--
item-smiles: CCN(CC)C(=O)c1ccc(Nc2nc(OCC3CCCCC3)c3nc[nH]c3n2)cc1
target-desc: RPS6KA2 KD1 KD2 (human)
classification: 1.0
--
item-smiles: O=C(Nc1cccc(Nc2nccc(Nc3cccc(C(F)(F)F)c3)n2)c1)C1CC1
target-desc: RPS6KA2 KD1 KD2 (human)
classification: 0.0
--
item-smiles: O=C1NC(=O)/C(=C/c2ccc3c(c2)OC(F)(F)O3)S1
target-desc: RPS6KA2 KD1 KD2 (human)
classification: 0.0
--
item-smiles: CC(=O)c1ccc(N2CCOCC2)cc1O
target-desc: RPS6KA2 KD1 KD2 (human)
classification: 0.0
--
item-smiles: CC#CC(=O)Nc1cc2c(Nc3ccc(F)c(Cl)c3)ncnc2cn1
target-desc: RPS6KA2 KD1 KD2 (human)
classification: 0.0
--
item-smiles: COc1cc2ncnc(Nc3cccc(Cl)c3)c2cc1OC
target-desc: RPS6KA2 KD1 KD2 (human)
classification: 1.0
